Compiled notes: published pKi values involving Alpha-1A adrenergic receptor (Homo sapiens, UniProt P35348).
pKi: −log10 of the molar value.
Recorded metric: pKi

[[record]]
compound = "COCC1=C(C(=O)OC)[C@H](c2ccc(F)c(F)c2)N(C(=O)N[C@@H]2CC[C@@H](N3CCN(c4ccccc4C#N)CC3)C2)C(=O)N1"
target_or_test_system = "Alpha-1A adrenergic receptor (Homo sapiens, UniProt P35348)"
reported_result = 9.05

[[record]]
compound = "COc1ccc(Cl)cc1N1CCN(CCNc2c(C(C)=O)c(-c3ccccc3)nn(C)c2=O)CC1"
target_or_test_system = "Alpha-1A adrenergic receptor (Homo sapiens, UniProt P35348)"
reported_result = 9.55


(A) COc1ccccc1OCCNC[C@@H]1CO[C@@H](c2ccccc2)CO1 (relative stereo)
(B) CC(C)Oc1ccccc1N1CCN(Cc2nc(CN3CCCC3=O)co2)CC1
I'm curious, which of these has a smaller pKi number: A or B ? Answer by quoting the chosen item's label. B

(A) c1ccc(COc2ccccc2OCCNCCOc2ccccc2)cc1
(B) COc1ccccc1N1CCN(CCn2c(=O)[nH]c3c(sc4ccc(NC(=O)CCCC(=O)NCCc5ccccc5)cc43)c2=O)CC1
Which of these two has the smaller recorded pKi: A or B ? Kindly give the label for the entry you pick. A
(A: 8.00, B: 8.79)

----------
Literature roundup of Alpha-1A adrenergic receptor (Homo sapiens, UniProt P35348) data, read-out pKi.
pKi: −log10 of the molar value.
Recorded metric: pKi

[[record]]
compound = "CC(C)Oc1ccccc1N1CCN(CC(O)CNC(=O)c2ccc3c(c2)C(=O)N(c2ccc(Cl)c(Cl)c2)C3=O)CC1 (stereo not given)"
recorded_metric = "pKi"
reported_result = 8.92


(A) CC(C)Oc1ccccc1N1CCN(CCNC(=O)CN2CCCCCC2=O)CC1
(B) C[C@H](Cc1cc2c(c(C(N)=O)c1)N(CCCO)CC2)NCCOc1ccccc1OCC(F)(F)F
(C) O=C(NCCCCN1CCN(c2ccccc2F)CC1)c1ccc2ccccc2c1
Put these in order: smallest pKi first, largest last. Use the labels to give the requested order. C, A, B
(C: 7.41, A: 7.74, B: 10.40)

----------
Target: Alpha-1A adrenergic receptor (Homo sapiens, UniProt P35348)
Sequence (P35348 whole entry): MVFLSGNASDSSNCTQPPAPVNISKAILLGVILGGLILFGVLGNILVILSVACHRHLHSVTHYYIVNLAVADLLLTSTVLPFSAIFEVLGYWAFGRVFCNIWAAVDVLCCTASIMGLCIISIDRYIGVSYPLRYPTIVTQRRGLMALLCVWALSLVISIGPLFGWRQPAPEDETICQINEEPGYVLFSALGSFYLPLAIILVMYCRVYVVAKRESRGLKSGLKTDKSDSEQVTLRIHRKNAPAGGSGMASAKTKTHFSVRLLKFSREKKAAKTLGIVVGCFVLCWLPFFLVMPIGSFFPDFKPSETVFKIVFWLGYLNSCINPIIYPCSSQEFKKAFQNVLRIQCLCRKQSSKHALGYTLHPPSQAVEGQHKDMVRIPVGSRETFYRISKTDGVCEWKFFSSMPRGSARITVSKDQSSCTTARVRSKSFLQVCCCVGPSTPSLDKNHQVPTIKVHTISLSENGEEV
Please find below Ki measurements for Alpha-1A adrenergic receptor (Homo sapiens, UniProt P35348), combined from several publications.
Recorded metric: Ki (nM)

Worked set:
[[record]]
compound = "COc1ccccc1N1CCN(CCn2c(=O)[nH]c3c(sc4ccc(NC(=O)CCC(=O)NCc5ccccc5)cc43)c2=O)CC1"
recorded_metric = "Ki"
reported_result = 1.1

[[record]]
compound = "COc1cc2nc(N3CCC[C@H](NC(=O)[C@@H]4COc5ccccc5O4)C3)nc(N)c2cc1OC"
recorded_metric = "Ki"
reported_result = 33.1

[[record]]
compound = "CC(C)Oc1ccccc1N1CCN(Cc2nc(CN3CCCCC3=O)co2)CC1"
recorded_metric = "Ki"
reported_result = 2320

[[record]]
compound = "COc1ccccc1N1CCN(CCn2c(=O)[nH]c3sccc3c2=O)CC1"
recorded_metric = "Ki"
reported_result = 0.344

[[record]]
compound = "COc1ccccc1N1CCN(CCn2c(C)nc3c(sc4ccc(NC(=O)CCCC(=O)NCCc5ccccc5)cc43)c2=O)CC1"
recorded_metric = "Ki"
reported_result = 0.912

[[record]]
compound = "CS(=O)(=O)c1ccccc1CCNCCOc1cc(F)ccc1Cl"
recorded_metric = "Ki"
reported_result = 150

[[record]]
compound = "COc1cc2nc(N3CCC[C@@H](NC(=O)c4ccco4)C3)nc(N)c2cc1OC"
recorded_metric = "Ki"
reported_result = 110

[[record]]
compound = "COc1ccc(C)cc1S(=O)(=O)N[C@H]1CC[C@@H](N2CCN(c3ccccc3OC(C)C)CC2)CC1"
recorded_metric = "Ki"
reported_result = 18

[[record]]
compound = "COc1ccc(N2C(=O)c3ccc(C(=O)NCC(O)CN4CCN(c5ccccc5OC(C)C)CC4)cc3C2=O)cc1OC (centres undefined)"
recorded_metric = "Ki"
reported_result = 0.98

[[record]]
compound = "COc1cc2nc(N3CCN(C(=O)C4CCSS4)CC3)nc(N)c2cc1OC (centres undefined)"
recorded_metric = "Ki"
reported_result = 0.813


(A) CO/C(O)=C1\C(C)=NC(C)=C(C(=O)N(C)CCCN2CCC(c3ccccc3)(c3ccccc3)CC2)C1c1ccc([N+](=O)[O-])cc1 (centres undefined)
(B) COc1ccccc1N1CCN(C[C@H]2CO[C@@](CN3C(=O)CC4(CCCC4)CC3=O)(c3ccccc3)O2)CC1 (relative stereo)
Between these two entries, A and B , state which has the higher Ki. Answer by stating the label of the chosen item. A
(A: 20.4 nM, B: 2.04 nM)

(a) Cn1nc(Cl)c2cn3nc(NCCN4CCN(c5ccccc5)CC4)ccc3c2c1=O
(b) COc1ccccc1N1CCN(CCn2c(=O)c3c(-c4ccccc4)csc3n(C)c2=O)CC1
(c) CC(C)Oc1ccccc1N1CCN(Cc2nc(CN3CCCCC3=O)cs2)CC1
(d) O=C(CCCN1CCC(NC(=O)c2ccccc2)CC1)c1ccccc1
Arrange these 4 compounds in increasing order of Ki. # output: labels, in the requested order c, a, b, d

----------
pKi: −log10 of the molar value.
Multi-source literature compilation: pKi on Alpha-1A adrenergic receptor (Homo sapiens, UniProt P35348).
Recorded metric: pKi

Solved cases (10 shown):
[[record]]
molecule = "COCC1=C(C(=O)OC)[C@H](c2ccc(F)c(F)c2)N(C(=O)N[C@H]2CC[C@@H](N3CCC(c4ccccc4C#N)CC3)C2)C(=O)N1"
reported_result = 9.22

[[record]]
molecule = "O=C1CC2(CCCC2)CC(=O)N1CCN1CCN(c2ccccc2Cl)CC1"
reported_result = 6.26

[[record]]
molecule = "COc1cccc(OC)c1OCCNC[C@H]1COc2cccc(F)c2O1.Cl"
reported_result = 9.19

[[record]]
molecule = "O=C1CCCN1Cc1cc(CN2CCN(c3ccccc3Oc3ccccc3)CC2)on1"
reported_result = 7.55

[[record]]
molecule = "CC(C)Oc1ccccc1N1CCN(C2CCC(N3C(=O)c4cccc(F)c4C3=O)CC2)CC1 (stereo in doubt; 6d)"
reported_result = 9.00

[[record]]
molecule = "Cn1c(=O)n(CCN2CCN(c3ccc(Cl)c(Cl)c3)CC2)c(=O)c2c1c1ccccc1n2C"
reported_result = 6.74

[[record]]
molecule = "CO/C(O)=C1\\C(C)=NC(C)=C(C(=O)NCCCN2CCC(c3ccccc3)(c3ccccc3)CC2)C1c1ccc(Cl)cc1 (stereo not drawn)"
reported_result = 8.75

[[record]]
molecule = "CC(C)Oc1ccccc1N1CCN(CC2=NOC(CN3CCCCC3=O)C2)CC1 (stereo not drawn)"
reported_result = 7.05

[[record]]
molecule = "COC(=O)C1=C(C)NC(=O)N(C(=O)NCCCN2CCC(C)(c3ccccc3)CC2)C1c1ccc(F)c(F)c1 (stereo not drawn)"
reported_result = 9.30

[[record]]
molecule = "N#CC1(c2ccccc2)CCN(CCCNC(=O)C(c2ccccc2)C2CCCCC2)CC1 (racemic)"
reported_result = 7.21


(I) CC(CN1CCN(c2cc(F)c(F)cc2F)CC1)N1C(=O)CC2(CCCC2)CC1=O (single isomer, unassigned)
(II) COc1ccc2ccoc2c1OCCNC[C@@H]1COc2ccccc2O1
Identify the entry with the larger pKi. Options: I and II Identify your pick by its label. II
(II: 8.04, I: 4.83)

(A) CC(C)Oc1ccccc1N1CCN(Cc2nc(CN3C(=O)c4ccccc4C3=O)co2)CC1
(B) CC(C)Oc1ccccc1N1CCN(CC(O)CNC(=O)c2ccc3c(c2)C(=O)N(c2ccc(F)cc2)C3=O)CC1 (stereo not drawn)
(C) COc1ccccc1OCCNCC1CCOC(c2ccccc2)(c2ccccc2)O1 (stereo not drawn)
(D) COc1c(OCCF)cccc1C(=O)C1CCN(CCc2ccc(F)cc2)CC1
Could you please sort these 4 entries by pKi from high to low? Labels, requested order. B, C, D, A
(B: 8.82, C: 7.61, D: 6.84, A: 6.53)

(a) COc1ccc(Cl)cc1N1CCN(CCn2c(C)nc3c([nH]c4ccccc43)c2=O)CC1
(b) COc1cc2nc(N3CCN(C(=O)c4ccc(C)o4)[C@H]4CCCC[C@H]43)nc(N)c2cc1OC
(c) COc1cccc(-c2ccccc2)c1OCCNC[C@@H]1COc2ccccc2O1
(d) Cc1ccccc1N1CCN(CCN2C(=O)CC3(CCCC3)CC2=O)CC1
(e) CS(=O)(=O)Nc1ccc(F)c([C@@H](O)CN)c1
Task for the reader: rank each entry by its pKi, from the minimum upward. Provide the labels, sequenced as the question asks. e, d, b, c, a

(P) CCOc1ccccc1OCCNCCOc1ccccc1OCc1ccccc1
(Q) COc1cccc(OC)c1OCCNC[C@@H]1COc2c(OC)cccc2O1
(R) Cc1ccc(C(C(=O)NCCCN2CCN(c3ccccc3)CC2)c2ccc(C)cc2)cc1
(S) Cc1ccc(C2(c3ccc(C)cc3)CC(=S)N(CCCN3CCC(C#N)(c4ccccc4Cl)CC3)C2=O)cc1
Arrange items by their pKi values in increasing order. Dear reader, please state the labels in the requested order. Q, S, R, P
(Q: 6.09, S: 6.66, R: 7.92, P: 8.70)

(P) Cc1ccc2c(c1)c1c(n2/C=C\c2ccccc2)CCN(C)C1
(Q) Fc1ccccc1N1CCN(CCCCNc2ccc(-c3ccccc3)cn2)CC1
(R) Cc1c(N=C2NCCN2)cccc1-c1ccccc1
(S) COc1cc2nc(N3CCN(C(=O)CC4CCSS4)CC3)nc(N)c2cc1OC (stereo not drawn)
Exam item: list the entries in increasing order of pKi. Rank them, then answer with their labels in that order. R, Q, P, S
(R: 6.70, Q: 8.00, P: 8.85, S: 9.54)

(1) COc1cc2nc(N3CCN(C(=O)C4COc5ccccc5O4)[C@H]4CCCC[C@H]43)nc(N)c2cc1OC (relative stereo)
(2) FC(F)(F)c1cccc(N2CCN(CCCCNc3ccc(-c4ccccc4)cn3)CC2)c1
(3) COCC1=C(C(=O)OC)[C@H](c2ccc(F)c(F)c2)N(C(=O)N[C@H]2CC[C@H](N3CCN(c4ccccc4C#N)CC3)C2)C(=O)N1
(4) Cc1ccc(S(C)(=O)=O)c(NCC2=NCCN2)c1
Put the items in order so that reported pKi rises from first to last. Returns: the labels arranged in the requested order. 4, 2, 3, 1
(4: 6.11, 2: 6.64, 3: 8.32, 1: 8.55)

(I) c1ccc2c(c1)CCCC2NC1=NCCCO1 (stereo not drawn)
(II) COCC1=C(C(=O)OC)[C@H](c2ccc(F)c(F)c2)N(C(=O)N[C@H]2CC[C@H](N3CCC(c4ccccn4)CC3)C2)C(=O)N1
Determine, for I and II , which has the greater value of pKi. Use the label to indicate which entry you chose. II
(II: 8.08, I: 5.71)
